# System: VDR homodimer (NR concentration 270 nM)
# method notes: PBM binding z-score (relative to random genomic background probes); higher = stronger binding; sequences stand for … in GC…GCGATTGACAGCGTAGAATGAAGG
// label = TRUE if PBM binding z-score is not less than 4, otherwise FALSE

Here are 5 sequences together with their reported answers.
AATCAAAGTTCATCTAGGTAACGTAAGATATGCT; TRUE
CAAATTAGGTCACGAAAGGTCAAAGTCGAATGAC; FALSE
TCGAGTAGGTTAGGGACATTCAGAATGGCGTCGA; FALSE
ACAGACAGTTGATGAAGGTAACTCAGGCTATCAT; FALSE
CAAACTAGGTCAAGAGGTCACAGTCCGCTTCCCG; FALSE

Now, please, on to the next sequence.
**Q:** Exam item: decide whether the reported PBM binding z-score for CGAGCTAGGTCATTGACAGGACAGTGAATAGTAA is at least 4.
**A:** FALSE

Source listed as the supplement of paper PMC6555819.
